The following compounds each carry a recorded IC50 for UniProt:O94782.
Sequence (O94782 whole entry): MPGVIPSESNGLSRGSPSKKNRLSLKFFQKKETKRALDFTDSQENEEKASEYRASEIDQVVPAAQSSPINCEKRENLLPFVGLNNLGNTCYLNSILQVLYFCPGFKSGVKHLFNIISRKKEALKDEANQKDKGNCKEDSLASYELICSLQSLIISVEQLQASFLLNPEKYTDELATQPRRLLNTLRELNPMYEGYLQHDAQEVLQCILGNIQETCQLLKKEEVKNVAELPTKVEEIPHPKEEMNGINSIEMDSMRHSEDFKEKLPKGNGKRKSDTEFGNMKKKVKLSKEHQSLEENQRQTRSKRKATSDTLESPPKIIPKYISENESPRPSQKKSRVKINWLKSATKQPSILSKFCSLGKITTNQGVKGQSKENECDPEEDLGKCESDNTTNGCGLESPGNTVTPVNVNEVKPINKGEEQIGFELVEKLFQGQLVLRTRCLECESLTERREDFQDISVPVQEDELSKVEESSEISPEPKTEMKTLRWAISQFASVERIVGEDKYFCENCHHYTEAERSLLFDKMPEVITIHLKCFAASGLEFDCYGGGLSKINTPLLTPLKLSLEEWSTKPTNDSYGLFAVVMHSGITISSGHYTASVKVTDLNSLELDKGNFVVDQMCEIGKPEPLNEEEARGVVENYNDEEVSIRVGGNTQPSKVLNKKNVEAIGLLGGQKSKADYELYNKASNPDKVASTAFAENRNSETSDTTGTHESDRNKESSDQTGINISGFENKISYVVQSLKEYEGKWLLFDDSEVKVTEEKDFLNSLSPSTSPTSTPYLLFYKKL
Sequence (Q8TAF3 whole entry partner): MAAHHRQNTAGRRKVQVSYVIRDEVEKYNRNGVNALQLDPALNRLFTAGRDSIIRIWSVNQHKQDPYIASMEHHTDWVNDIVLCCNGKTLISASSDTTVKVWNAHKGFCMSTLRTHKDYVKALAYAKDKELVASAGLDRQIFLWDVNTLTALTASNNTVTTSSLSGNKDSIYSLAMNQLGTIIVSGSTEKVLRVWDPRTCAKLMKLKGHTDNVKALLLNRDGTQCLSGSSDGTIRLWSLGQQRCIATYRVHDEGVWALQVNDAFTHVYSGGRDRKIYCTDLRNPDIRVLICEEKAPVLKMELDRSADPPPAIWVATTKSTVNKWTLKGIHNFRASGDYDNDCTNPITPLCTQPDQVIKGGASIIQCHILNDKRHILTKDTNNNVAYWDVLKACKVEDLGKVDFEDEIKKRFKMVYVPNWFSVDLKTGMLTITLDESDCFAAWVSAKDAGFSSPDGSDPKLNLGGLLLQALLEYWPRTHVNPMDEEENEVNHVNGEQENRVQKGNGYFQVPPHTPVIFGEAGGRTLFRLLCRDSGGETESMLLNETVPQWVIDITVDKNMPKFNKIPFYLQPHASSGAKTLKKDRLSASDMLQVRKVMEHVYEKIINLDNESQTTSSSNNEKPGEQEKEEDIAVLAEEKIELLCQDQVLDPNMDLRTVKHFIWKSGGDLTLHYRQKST

Solved cases below.
compound	IC50
COc1ncnc(C2CC2)c1-c1ncc2[nH]cc(Cc3ccc(-c4nc(C(F)(F)F)cn4C)cc3)c2n1	< 30 nM
CC(C)c1ccccc1-c1ncc2[nH]cc(Oc3ccc(-c4nc(C(F)(F)F)cn4C)cc3)c2n1	30 to 100 nM
CC(C)Oc1ncnc(C2CC2)c1-c1ncc2[nH]cc(Cc3ccc(-c4nc(C(F)(F)F)cn4C)cc3)c2n1	< 30 nM
CC(C)c1ccccc1-c1ncc2[nH]cc([C@H](C)c3ccc(-c4nc(C(F)(F)F)cn4C)cc3)c2n1 (single isomer, unassigned)	< 30 nM
COc1ccnc(C2CC2)c1-c1ncc2[nH]cc(Cc3ccc(-c4nc(C(F)(F)F)cn4C)cc3)c2n1	30 to 100 nM
Cn1cc(C(F)(F)F)nc1-c1ccc(Cc2c[nH]c3cnc(-c4ccccc4C(C)(C)O)nc23)cc1	< 30 nM

Switching to the query record.
Prompt line: Retrieve IC50 measured for CCOc1ncnc(C2CC2)c1-c1ncc2[nH]nc(Cc3ccc(-c4nc(C(F)(F)F)cn4C)cc3)c2n1 and print it.
Response line: < 30 nM

====

Recorded pIC50 for the following molecules
Test system: HCC1954 (BRCA1 WT) cell line
Experiment: Viability assay in BRCA1 WT cell line HCC1954
Assay type: cell-based
Conditions: read-out: HCC 1954 IC50 rel IC50
pIC50: −log10 of the molar value.

molecule	pIC50
Cn1cc(C(F)(F)F)nc1-c1ccc(C(O)c2c[nH]c3cnc(-c4c(OC(F)F)ncnc4C4CC4)nc23)cc1 (single isomer, unassigned) [Compound 141]	≤ 5.00

Switching to the query record.
Prompt line: Param request: pIC50 | system HCC1954 (BRCA1 WT) cell line | item COc1ncnc(C2CC2)c1-c1ncc2[nH]cc(C(C)c3ccc(-c4nc(C(F)(F)F)cn4C)cc3)c2n1 (single isomer, unassigned) [Compound 192]
Response line: 5.00 to 6.60

====

Test system: monoubiquitinated PCNA
Test: AlphaLISA assay measuring monoubiquitinated PCNA in MDA-MB-436
Type: cell-based
Conditions: Homo sapiens, read-out: Alpha LISA IC50
pIC50: −log10 of the molar value.
Below is a list of entries, each paired with its recorded pIC50 value.

Prompt line: Assign pIC50 to the following record: CNc1ncnc(C2CC2)c1-c1ncc2[nH]cc(Cc3ccc(-c4nc(C(F)(F)F)cn4C)cc3)c2n1 [Compound 175]
Response line: 6.60 to 7.00

Prompt line: For the compound COC(c1ccc(-c2nc(C(F)(F)F)cn2C)cc1)c1c[nH]c2cnc(-c3ccccc3C(C)C)nc12 (centres unmarked) [Compound 73] , give its measured pIC50 value.
Response line: 6.60 to 7.00

Prompt line: Please indicate pIC50 recorded for COc1ncnc(C2CC2)c1-c1ncc2[nH]cc(Cc3ccc(-c4nc(C#N)cn4C)cc3)c2n1 [Compound 31]
Response line: 5.00 to 6.60

Prompt line: Indicate the recorded pIC50 value for this compound: COc1ncnc(C(C)(C)C)c1-c1ncc2[nH]cc(Cc3ccc(-c4nc(C(F)(F)F)cn4C)cc3)c2n1 [Compound 124]
Response line: 6.60 to 7.00

Prompt line: Return the recorded pIC50 value; entry: COc1cccc(OC)c1-c1ncc2[nH]nc(Cc3ccc(-c4nc(C(F)(F)F)cn4C)cc3)c2n1 [Compound 136]
Response line: 5.00 to 6.60

Prompt line: Indicate the recorded pIC50 value for this compound: COc1ncnc(C2CC2)c1-c1cc2c(Oc3ccc(-c4nc(C(F)(F)F)cn4C)cc3)c[nH]c2cn1 [Compound 167]
Response line: > 7.00

Prompt line: Give the measured pIC50 for COCc1[nH]c2cnc(-c3c(OC)ncnc3C3CC3)nc2c1Cc1ccc(-c2nc(C(F)(F)F)cn2C)cc1 [Compound 94]
Response line: > 7.00

Prompt line: Tell me measured pIC50 for CC(C)c1ccccc1-c1cc2c(Nc3ccc(-c4nc(C(F)(F)F)cn4C)cc3)c[nH]c2cn1 [Compound 17] please.
Response line: > 7.00

Prompt line: In one line, give reported pIC50 of the entry Cn1cc(C(F)(F)F)nc1-c1ccc(Sc2c[nH]c3cnc(-c4ccccc4C(F)(F)F)nc23)cc1 [Compound 84] .
Response line: 5.00 to 6.60

Prompt line: Query pIC50 for CC(C)Oc1ncnc(C2CC2)c1-c1ncc2[nH]nc(Cc3ccc(-c4nc(C(F)(F)F)cn4C)cc3)c2n1 [Compound 102]
Response line: 6.60 to 7.00

Prompt line: Annotate the compound COc1nc(C)nc(C2CC2)c1-c1ncc2[nH]cc(Cc3ccc(-c4nc(C(F)(F)F)cn4C)cc3)c2n1 [Compound 142] with its measured pIC50.
Response line: > 7.00

Prompt line: Answer with the recorded pIC50 for the compound listed here: CC(C)c1ccccc1-c1ncc2[nH]nc(Cc3ccc(-c4nc(C(F)(F)F)cn4C)cc3)c2n1 [Compound 27]
Response line: > 7.00

Prompt line: Complete the entry with pIC50 for Cn1cc(C(F)(F)F)nc1-c1ccc([C@@](C)(O)c2c[nH]c3cnc(-c4cccnc4OCC(F)(F)F)nc23)cc1 (single isomer, unassigned) [Compound 74]
Response line: 6.60 to 7.00

Prompt line: Return reported pIC50. Input compound: COc1ncnc(C2CC2)c1-c1ncc2c(n1)c(Cc1ccc(-c3nc(C(F)(F)F)cn3C)cc1)cn2C(C)C [Compound 91]
Response line: 6.60 to 7.00

Values from patent US20240182481A1
